Source: patent US20240238445A1

Assignment: determine reported Inhibition rate (%) for the given binders.
# studySystem: FAM19A5 protein (Homo sapiens, UniProt Q7Z5A7)
# assayOverview: competitive inhibition ELISA; competitor: coated LRRC4B(36-576)-hFc
Numbers only, in %.

// solved cases for Inhibition rate (%) follow
GYTYFTTVTVNTLETQPGEE [FB-20[N10]]: 27
GYTYFTTVTVENLETQPGEE [FB-20[N11]]: 74.1
GYTYFTTVTVETAETQPGEE [FB-20[A12]]: 73

Query binder follows.
Supply measured Inhibition rate (%) of GYTYNTTVTVETLETQPGEE [FB-20[N4]] in your reply. -1.3
